assay: Preliminary pharmacokinetic study in plasma; format: in vivo, rat; settings: male, Sprague-Dawley, rat, plasma, iv, 10 mg/kg
measurement label: half-life
Please answer using a numeric value trailed by its unit.

Incoming: Please give the measured half-life for this molecule: `O=C(/C=C/c1ccc(O)c2c1[C@H](C(=O)O[C@H](Cc1ccc(O)c(O)c1)C(=O)O)[C@@H](c1ccc(O)c(O)c1)O2)O[C@H](Cc1ccc(O)c(O)c1)C(=O)O`
Outgoing: 1.56 h

----------
test: Lung tissue distribution study; type: in vivo, rat; conditions: male, Sprague-Dawley, rat, lung tissue, iv, 10 mg/kg
measurement label: Tmax (min)
Answer with a number only, understood to be in min.

Incoming: Which Tmax is reported for this molecule? `O=C(/C=C/c1ccc(O)c2c1[C@H](C(=O)O[C@H](Cc1ccc(O)c(O)c1)C(=O)O)[C@@H](c1ccc(O)c(O)c1)O2)O[C@H](Cc1ccc(O)c(O)c1)C(=O)O`
Outgoing: 1.98

----------
test: Lung tissue distribution study; assay type: in vivo, rat; settings: male, Sprague-Dawley, rat, lung tissue, iv, 10 mg/kg
measurement label: MRT (min)
Give your result in min as a bare value.

Incoming: Given the entry O=C(/C=C/c1ccc(O)c2c1[C@H](C(=O)O[C@H](Cc1ccc(O)c(O)c1)C(=O)O)[C@@H](c1ccc(O)c(O)c1)O2)O[C@H](Cc1ccc(O)c(O)c1)C(=O)O [Sal B, Salvianolic acid B] , report its measured MRT.
Outgoing: 11.4

----------
assay: Lung tissue distribution study; assay type: in vivo, rat; conditions: male, Sprague-Dawley, rat, lung tissue, iv, 10 mg/kg
measurement label: Cmax (ng/g)
Give just the numeric value; ng/g need not be written.

Incoming: // Cmax lookup, key: O=C(/C=C/c1ccc(O)c2c1[C@H](C(=O)O[C@H](Cc1ccc(O)c(O)c1)C(=O)O)[C@@H](c1ccc(O)c(O)c1)O2)O[C@H](Cc1ccc(O)c(O)c1)C(=O)O [Sal B, Salvianolic acid B]
Outgoing: 13200

----------
experiment: Preliminary pharmacokinetic study in plasma; type: in vivo, rat; conditions: male, Sprague-Dawley, rat, plasma, iv, 10 mg/kg
measurement label: Tmax
// return the numeric value with its unit appended

Incoming: Could you share which Tmax value was measured for `O=C(/C=C/c1ccc(O)c2c1[C@H](C(=O)O[C@H](Cc1ccc(O)c(O)c1)C(=O)O)[C@@H](c1ccc(O)c(O)c1)O2)O[C@H](Cc1ccc(O)c(O)c1)C(=O)O` ?
Outgoing: 1.98 min

----------
assay: Preliminary pharmacokinetic study in plasma; format: in vivo, rat; conditions: male, Sprague-Dawley, rat, plasma, iv, 10 mg/kg
measurement label: AUC(0-inf) (ng·h/mL)
Give just the numeric value; ng·h/mL need not be written.

Incoming: Any idea what AUC(0-inf) was measured for `O=C(/C=C/c1ccc(O)c2c1[C@H](C(=O)O[C@H](Cc1ccc(O)c(O)c1)C(=O)O)[C@@H](c1ccc(O)c(O)c1)O2)O[C@H](Cc1ccc(O)c(O)c1)C(=O)O` ?
Outgoing: 6550

----------
assay: Preliminary pharmacokinetic study in plasma; format: in vivo, rat; settings: male, Sprague-Dawley, rat, plasma, iv, 10 mg/kg
measurement label: MRT (min)
# value in min; strip the unit string

Incoming: State the recorded MRT for this entry: `O=C(/C=C/c1ccc(O)c2c1[C@H](C(=O)O[C@H](Cc1ccc(O)c(O)c1)C(=O)O)[C@@H](c1ccc(O)c(O)c1)O2)O[C@H](Cc1ccc(O)c(O)c1)C(=O)O`
Outgoing: 49.8

These data points were gathered from paper PMC9237582.
